Assay: Phase 1 Stage 1 clinical pharmacokinetics of SC ZA co-administered with rHuPH20
Type: in vivo, human
Conditions: human, serum, sc, ZA 2 mg SC + 24000 U rHuPH20; mean, n=3
endpoint: CL/F (mL/min/kg)
Express your answer in mL/min/kg, writing the number without its unit.

IN: Identify the reported CL/F for the following entry. O=P(O)(O)C(O)(Cn1ccnc1)P(=O)(O)O
OUT: 2.11

###

Assay: Phase 1 Stage 1 clinical pharmacokinetics of SC ZA co-administered with rHuPH20
Format: in vivo, human
Details: human, serum, sc, 0.0691 mg/kg; read-out: T½ λz (converted)
endpoint: half-life (h)
Express your answer in h, writing the number without its unit.

IN: Identify the reported half-life for the following entry. O=P(O)(O)C(O)(Cn1ccnc1)P(=O)(O)O
OUT: 26.1

###

Experiment: Phase 1 Stage 1 clinical pharmacokinetics of SC ZA co-administered with rHuPH20
Type: in vivo, human
Conditions: human, serum, sc, […], Subj 25; ZA […] SC; inf 0.549 hr; PH20 23736 U; read-out: Tmax
endpoint: Tmax

IN: Identify the reported Tmax for the following entry. O=P(O)(O)C(O)(Cn1ccnc1)P(=O)(O)O
OUT: 1.3 h

###

Test: Phase 1 Stage 1 clinical pharmacokinetics of SC ZA co-administered with rHuPH20
Assay type: in vivo, human
Conditions: human, serum, sc, serum; ZA 1 mg SC infusion + 24000 Units rHuPH20; 8 h post infusion; n=3; read-out: Median Conc.
endpoint: concentration at 8 h (ng/mL)
Express your answer in ng/mL, writing the number without its unit.

IN: Identify the reported concentration at 8 h for the following entry. O=P(O)(O)C(O)(Cn1ccnc1)P(=O)(O)O [ZA]
OUT: 2.46

###

Test: Phase 1 Stage 1 clinical pharmacokinetics of SC ZA co-administered with rHuPH20
Type: in vivo, human
Settings: human, serum, sc, […], Subj 16; ZA […] SC; inf 0.553 hr; PH20 23904 U
endpoint: Cmax (ng/mL)
Express your answer in ng/mL, writing the number without its unit.

IN: Identify the reported Cmax for the following entry. O=P(O)(O)C(O)(Cn1ccnc1)P(=O)(O)O
OUT: 15.3

###

Experiment: Phase 1 Stage 1 clinical pharmacokinetics of SC ZA co-administered with rHuPH20
Format: in vivo, human
Settings: human, serum, sc, […], AUC (0-12 h), Subj 77; ZA […] SC; inf […]; PH20 6000 U
endpoint: AUC(0-t) (ng·h/mL)
Express your answer in ng·h/mL, writing the number without its unit.

IN: Identify the reported AUC(0-t) for the following entry. O=P(O)(O)C(O)(Cn1ccnc1)P(=O)(O)O [ZA]
OUT: 516

###

Test: Phase 1 Stage 1 clinical pharmacokinetics of SC ZA co-administered with rHuPH20
Assay type: in vivo, human
Settings: human, serum, sc, serum; ZA 2 mg SC infusion + 24000 Units rHuPH20; 4 h post infusion; n=3; read-out: Mean Conc.
endpoint: concentration at 4 h (ng/mL)
Express your answer in ng/mL, writing the number without its unit.

IN: Identify the reported concentration at 4 h for the following entry. O=P(O)(O)C(O)(Cn1ccnc1)P(=O)(O)O
OUT: 20.3

###

Assay: Phase 1 Stage 1 clinical pharmacokinetics of SC ZA co-administered with rHuPH20
Format: in vivo, human
Details: human, serum, sc, […], AUC (0-48 h), Subj 16; ZA […] SC; inf 0.553 hr; PH20 23904 U
Experimental: A pharmacokinetic study of zoledronic acid (ZA) co-administered with rHuPH20 in human subjects was conducted. […] Serum concentration of ZA was determined using a qualified LC-MS-MS assay after derivatization with diazomethane (Zhu, L S et al. (2006) Rapid Commun. […] The assay range was from 2.0 to 400 ng/mL with a lower limit of quantitation (LLOQ) at 2.0 ng/mL. […] Summary statistics (mean, standard deviation, and median) were calculated using JMP or Microsoft Excel.
endpoint: AUC(0-t)

IN: Identify the reported AUC(0-t) for the following entry. O=P(O)(O)C(O)(Cn1ccnc1)P(=O)(O)O
OUT: 64.2 ng·h/mL

###

Experiment: Pharmacokinetics of ZA in pig serum after IV or SC infusion with or without rHuPH20 (LC-MS-MS, non-compartmental analysis)
Assay type: in vivo
Conditions: female, Yorkshire, pig, serum, sc, […], pig; SC ZA […], no rHuPH20 (Study Group 2); n=4; read-out: T½ λz, median (converted)
Protocol: A pharmacokinetic study of zoledronic acid (ZA) co-administered with rHuPH20 in female Yorkshire swines was conducted. […] Serum concentration of ZA was determined using a qualified LC-MS-MS assay after derivatization with diazomethane (Zhu, L S et al. (2006) Rapid Commun. Mass Spectrom. 20: 3421-3426; “Qualification Data of An LC-MS/MS Method for the Determination of Zoledronate in Porcine Serum”, MDS Pharma Services Study No. AA43671-01, Report Date 14 Sep. 2007). […]
endpoint: half-life (min)
Express your answer in min, writing the number without its unit.

IN: Identify the reported half-life for the following entry. O=P(O)(O)C(O)(Cn1ccnc1)P(=O)(O)O
OUT: 59.4

###

Experiment: Phase 1 Stage 1 clinical pharmacokinetics of SC ZA co-administered with rHuPH20
Format: in vivo, human
Details: human, serum, sc, serum; ZA 1 mg SC infusion + 24000 Units rHuPH20; 6 h post infusion; individual subjects; read-out: Zoledronic Acid Concentration
endpoint: concentration at 6 h (ng/mL)
Express your answer in ng/mL, writing the number without its unit.

IN: Identify the reported concentration at 6 h for the following entry. O=P(O)(O)C(O)(Cn1ccnc1)P(=O)(O)O [ZA]
OUT: 5.48

###

Experiment: Phase 1 Stage 1 clinical pharmacokinetics of SC ZA co-administered with rHuPH20
Type: in vivo, human
Settings: human, serum, sc, ZA 1 mg SC + 24000 U rHuPH20; median, n=3; read-out: MRT
endpoint: MRT (h)
Express your answer in h, writing the number without its unit.

IN: Identify the reported MRT for the following entry. O=P(O)(O)C(O)(Cn1ccnc1)P(=O)(O)O
OUT: 6.66

###

Assay: Phase 1 Stage 1 clinical pharmacokinetics of SC ZA co-administered with rHuPH20
Type: in vivo, human
Settings: human, serum, sc, 0.0653 mg/kg, Subj 41; ZA 0.0653 mg/kg SC; inf […]; PH20 12216 U
endpoint: Cmax (ng/mL)
Express your answer in ng/mL, writing the number without its unit.

IN: Identify the reported Cmax for the following entry. O=P(O)(O)C(O)(Cn1ccnc1)P(=O)(O)O
OUT: 141

###

Assay: Pharmacokinetics of ZA in pig serum after IV or SC infusion with or without rHuPH20 (LC-MS-MS, non-compartmental analysis)
Format: in vivo
Conditions: female, Yorkshire, pig, serum, subcutaneous, […], Time 1 h; pig ID 59; Study Group 2; SC; ZA […]; 100 mL, 16 min; rHuPH20 0 U/mL; read-out: Zoledronic Acid Serum Concentration
endpoint: concentration at 1 h (ng/mL)
Express your answer in ng/mL, writing the number without its unit.

IN: Identify the reported concentration at 1 h for the following entry. O=P(O)(O)C(O)(Cn1ccnc1)P(=O)(O)O
OUT: 44.6

###

Test: Pharmacokinetics of ZA in pig serum after IV or SC infusion with or without rHuPH20 (LC-MS-MS, non-compartmental analysis)
Format: in vivo
Conditions: female, Yorkshire, pig, serum, subcutaneous, pig 56, Study Group 3, SC, ZA […], rHuPH20 10000 U/mL, 25 mL over 4 min, time 4 h; read-out: Zoledronic Acid Serum Concentration
Experimental: A pharmacokinetic study of zoledronic acid (ZA) co-administered with rHuPH20 in female Yorkshire swines was conducted. […] Serum concentration of ZA was determined using a qualified LC-MS-MS assay after derivatization with diazomethane (Zhu, L S et al. (2006) Rapid Commun. Mass Spectrom. 20: 3421-3426; “Qualification Data of An LC-MS/MS Method for the Determination of Zoledronate in Porcine Serum”, MDS Pharma Services Study No. AA43671-01, Report Date 14 Sep. 2007). […]
endpoint: concentration at 4 h (ng/mL)
Express your answer in ng/mL, writing the number without its unit.

IN: Identify the reported concentration at 4 h for the following entry. O=P(O)(O)C(O)(Cn1ccnc1)P(=O)(O)O
OUT: 17.6

###

Experiment: Pharmacokinetics of ZA in pig serum after IV or SC infusion with or without rHuPH20 (LC-MS-MS, non-compartmental analysis)
Format: in vivo
Settings: female, Yorkshire, pig, serum, subcutaneous, […], pig 64, Study Group 3, SC, ZA […], rHuPH20 10000 U/mL, 100 mL over 16 min, time 6 h; read-out: Zoledronic Acid Serum Concentration
endpoint: concentration at 6 h (ng/mL)
Express your answer in ng/mL, writing the number without its unit.

IN: Identify the reported concentration at 6 h for the following entry. O=P(O)(O)C(O)(Cn1ccnc1)P(=O)(O)O
OUT: 5.75
